Value source: patent US4826968A

Biological target: spermidine/spermine N^1 -acetyltransferase (Rattus norvegicus, UniProt Q6P9U6)
Construct: Cytosolic spermidine acetyltransferase activity was extracted from the livers of male Sprague-Dawley rats; from tissue; host or cells: liver of male Sprague-Dawley rats, 6 h after intraperitoneal carbon tetrachloride; cytosolic extract
Sequence (Q6P9U6 1-171): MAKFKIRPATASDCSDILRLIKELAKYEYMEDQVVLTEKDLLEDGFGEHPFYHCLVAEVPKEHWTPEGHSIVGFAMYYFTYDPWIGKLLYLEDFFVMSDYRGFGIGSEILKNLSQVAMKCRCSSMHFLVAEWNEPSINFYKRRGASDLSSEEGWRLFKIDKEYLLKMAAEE
Assay: Cytosolic spermidine acetyltransferase assay ([14C]acetyl Coenzyme A, cellulose phosphate paper)
Type: biochemical
Settings: FIG. 2
Method: Spermidine acetyltransferase activity was assayed in a volume of 100 μl containing 100 μg of extract protein, 300 nmol spermidine, 0.8 nmol (40 nCi) [1^14 C] acetyl Coenzyme A and 10 μmol tris-HCl (pH 7.8). The reaction was allowed to proceed at 30° C. for 10 min and was terminated by the addition of 20 μl of 1M NH2 OH.HCl. Protein was precipitated by boiling the samples for 3 min and was removed by centrifugation. […]
measured_property: potency relative to the sym-norspermidine derivative

# molecule, tgt, observed_value
records = [
    ("CC(C)(COP(=O)(O)OP(=O)(O)OC[C@H]1O[C@@H](n2cnc3c(N)ncnc32)[C@H](O)[C@@H]1OP(=O)(O)O)[C@@H](O)C(=O)NCCC(=O)NCCSCC(=O)NCCCN [amide derived from 1,3-diaminopropane]", "spermidine/spermine N^1 -acetyltransferase (Rattus norvegicus, UniProt Q6P9U6)", "much less active"),
    ("CC(C)(COP(=O)(O)OP(=O)(O)OC[C@H]1O[C@@H](n2cnc3c(N)ncnc32)[C@H](O)[C@@H]1OP(=O)(O)O)[C@@H](O)C(=O)NCCC(=O)NCCSCC(=O)NCCCCN [amide derived from putrescine]", "spermidine/spermine N^1 -acetyltransferase (Rattus norvegicus, UniProt Q6P9U6)", "much less active"),
]
